tested on: HFF; experiment: cell viability relative to DMSO control; higher = less cytotoxic; conditions: 1 µM; 72 h
For each entry below, report its cell viability value.
// note: answer is a bare numeric in %

Prompt: Give reported cell viability value for CC(C)Nc1ncnc2c1cnn2-c1ccc(Cl)cc1
Response: 71.9

Prompt: Give reported cell viability value for c1cnc(NCc2ccc(CNc3ncccn3)cc2)nc1
Response: 67.2

Prompt: Give reported cell viability value for CC[C@@H]1C(=O)OC[C@@H]1Cc1cncn1C
Response: 62.8

Prompt: Give reported cell viability value for CC(C)n1cnc2c(NCc3ccccc3)nc(NCc3ccccc3)nc21
Response: 65.3

Prompt: Give reported cell viability value for NS(=O)(=O)c1ccc(NC(=O)NC(c2ccccc2)c2ccccc2)cc1
Response: 72.8

Prompt: Give reported cell viability value for Nc1cnn(C2OC(CO)C(O)C2O)c(=O)n1 (stereo unspecified)
Response: 63.5

Prompt: Give reported cell viability value for CC(=O)N1c2ccccc2NC2=C(C(=O)CC(C)(C)C2)C1c1ccc(OCc2ccccc2)cc1 (stereo unspecified)
Response: 70.4

Prompt: Give reported cell viability value for O=c1cc(Nc2ccc3ccccc3c2)[nH]c(=O)[nH]1
Response: 65.6

Prompt: Give reported cell viability value for Cc1[nH]c2ccccc2c1CC(=O)N[C@@H](Cc1ccccc1)C(=O)N(C)c1ccccc1
Response: 69.6

Prompt: Give reported cell viability value for C=CCN(C(=O)OCc1ccc([N+](=O)[O-])cc1)C1CCN(CC[C@](C)(CN(C)S(=O)(=O)c2ccccc2)c2ccccc2)CC1
Response: 69.6

Prompt: Give reported cell viability value for CC[C@@]1(O)C(=O)OCc2c1cc1n(c2=O)Cc2cc3c(CN(C)C)c(O)ccc3nc2-1
Response: 50.1
